Each entry below lists one item and its recorded unfolding enthalpy (calorimetric) value.
B1: Lysozyme C, P61626 (parent)
chain: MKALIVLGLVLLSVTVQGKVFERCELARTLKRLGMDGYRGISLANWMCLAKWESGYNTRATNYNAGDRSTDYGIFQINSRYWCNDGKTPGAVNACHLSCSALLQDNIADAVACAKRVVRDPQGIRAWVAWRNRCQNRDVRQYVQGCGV

- Variants of: B1
- Condition context: Homo sapiens; pH 3; Thermal; DSC; glycine-HCl 0.05 M; reversible: yes; structure 1LZ1; whole UniProt chain shown
The reply must contain the numeric value and, after it, the unit.

MKALIVLGLVLLSVTVQGKVFERCELARTLKRLGMDGYRGISLANWMCLAKWESGYNTRATNYNAGDRSTDYGIFQINSRYWCNDGKVPGAVNACHLSCSALLQDNIADAVACAKRVVRDPQGIRAWVAWRNRCQNRDVRQYVQGCGV [T88V] : 115 kcal/mol
MKALIVLGLVLLSVTVQGKVFERCELARTLKRLGMDGYRGISLANWMCLAKWESGYNARATNYNAGDRSTDYGIFQINSRYWCNDGKTPGAVNACHLSCSALLQDNIADAVACAKRVVRDPQGIRAWVAWRNRCQNRDVRQYVQGCGV [T58A] : 114 kcal/mol
MKALIVLGLVLLSVTVQGKVFERCELARTLKRLGMDGYRGISLANWMCLAKWESGYNTRATNYNAGDRSTDYGIFQINSRYWCNDGKAPGAVNACHLSCSALLQDNIADAVACAKRVVRDPQGIRAWVAWRNRCQNRDVRQYVQGCGV [T88A] : 107 kcal/mol
MKALIVLGLVLLSVTVQGKVFERCELARTLKRLGMDGYRGISLANWMCLAKWESGYNVRATNYNAGDRSTDYGIFQINSRYWCNDGKTPGAVNACHLSCSALLQDNIADAVACAKRVVRDPQGIRAWVAWRNRCQNRDVRQYVQGCGV [T58V] : 112 kcal/mol
MKALIVLGLVLLSVTVQGKVFERCELARTLKRLGMDGYRGISLANWMCLAKWESGYNTRATNYNAGDRSADYGIFQINSRYWCNDGKTPGAVNACHLSCSALLQDNIADAVACAKRVVRDPQGIRAWVAWRNRCQNRDVRQYVQGCGV [T70A] : 108 kcal/mol

Would you kindly look at the next entry?
Input: May I ask what unfolding enthalpy (calorimetric) has been recorded for MKALIVLGLVLLSVTVQGKVFERCELARTLKRLGMDGYRGISLANWMCLAKWESGYNTRATNYNAGDRSVDYGIFQINSRYWCNDGKTPGAVNACHLSCSALLQDNIADAVACAKRVVRDPQGIRAWVAWRNRCQNRDVRQYVQGCGV [T70V] ?
Output: 107 kcal/mol
